Provenance of the data: PubChem BioAssay (EPA / NIEHS)

Read-out: growth arrest and DNA damage 45 (GADD45A), GADD45A (gene 1647)
Assay: LTEA_HepaRG_GADD45A: Life Technologies and Expression Analysis (LTEA) Assay for growth arrest and DNA damage 45 (GADD45A) using HepaRG (AID 2283458)
Conditions: mRNA level, 48 h; actives raise or lower the signal
Activity calls are given as the source filed them. The calls were made as follows: active = hit-call score of the fitted dose curve at least 0.9, where 1 is the maximum; inactive = score below 0.9.
PARAMETER_MEASURED: AC50

A selection of reference data follows.
{"COMPOUND": "Cc1cc2c3c(c1)C(c1ccccc1)=N[C@@H](NC(=O)c1ccncc1)C(=O)N3CC2", "RESULT": "inactive"}
{"COMPOUND": "Nc1ccc(-c2ccc(N)cc2)cc1", "RESULT": "inactive"}
{"COMPOUND": "ClC(Cl)=C(c1ccc(Cl)cc1)c1ccc(Cl)cc1", "RESULT": "0.0693 µM (active)"}
{"COMPOUND": "Cc1ccc(O)c(C)c1", "RESULT": "inactive"}
{"COMPOUND": "O=C(O)C(F)(F)C(F)(F)C(F)(F)C(F)(F)C(F)(F)C(F)(F)C(F)(F)C(F)(F)F", "RESULT": "74.6 µM (active)"}
{"COMPOUND": "CCCCCCCCCC[N+](C)(C)CCCCCCCCCC", "RESULT": "inactive"}

Field AC50 (entry C[C@]12CCC(=O)C=C1CC[C@@H]1[C@@H]2CC[C@@]2(C)[C@H]1CC[C@]2(C)O ) reads 45.8 µM (active)

Field AC50 (entry ClC1=C(Cl)[C@]2(Cl)[C@@H]3[C@@H]4C[C@@H]([C@H]5O[C@@H]45)[C@@H]3[C@@]1(Cl)C2(Cl)Cl ) reads inactive

Field AC50 (entry C=CC(=O)NCNC(=O)C=C ) reads inactive

Field AC50 (entry CN(C)c1nc(=O)n(C2CCCCC2)c(=O)n1C ) reads inactive

Field AC50 (entry ClC1=C(Cl)[C@]2(Cl)[C@@H]3[C@H]4C[C@H]([C@@H]5O[C@H]45)[C@@H]3[C@@]1(Cl)C2(Cl)Cl ) reads inactive

* * *

Read-out: matrix metalloproteinase-10 (MMP10), MMP10 (gene 4319)
Assay: LTEA_HepaRG_MMP10: Life Technologies and Expression Analysis (LTEA) Assay for matrix metalloproteinase-10 (MMP10) using HepaRG (AID 2283517)
Conditions: mRNA level, 48 h; actives raise or lower the signal
Protocol: LTEA_HepaRG is a cell based, multiplexed-readout assay that uses HepaRG, a human liver cell line, with measurements taken at 48 hours after chemical dosing on a 96-well plate.LTEA_HepaRG_MMP10 is one of 102 assay component(s) measured in the LTEA HepaRG cell culture assay. It is a marker of Fibrosis.Data from the assay component LTEA_HepaRG_MMP10 was analyzed into 1 endpoint. […]
Activity calls are given as the source filed them. How the source made its calls: active means hit-call score of the fitted dose curve at least 0.9, where 1 is the maximum; inactive means score below 0.9.
Use one of these outcomes when replying: 1 (yes) for active, 0 (no) for inactive

Reference set (5 entries):
{"COMPOUND": "CCC(C)c1cc([N+](=O)[O-])cc([N+](=O)[O-])c1O (configuration not stated)", "GROUP": "1 (yes)"}
{"COMPOUND": "CO/C=C(/C(=O)OC)c1ccccc1COc1cccc(C(F)(F)F)n1", "GROUP": "1 (yes)"}
{"COMPOUND": "CCOCCOC(C)=O", "GROUP": "0 (no)"}
{"COMPOUND": "Cc1ccccc1O", "GROUP": "0 (no)"}
{"COMPOUND": "CC(c1ccc(O)cc1)(c1ccc(O)cc1)c1ccc(O)cc1", "GROUP": "1 (yes)"}

What call does the record list for O=C(O)C(F)(F)C(F)(F)C(F)(F)C(F)(F)C(F)(F)F ?
0 (no)

What call does the record list for CCCCCCCCCC[N+](C)(C)CCCCCCCCCC ?
0 (no)
